assay: soluble fraction after stress (log2 fold change); higher = more stays soluble; pooled small domains, quantitative proteomics; conditions: stress: pH 4
soluble fraction (log2) values, listed per item
Form field (numeric): enter value without unit.

Some sequences with recorded soluble fraction (log2):
HMLVMTDNVIKAINDLLNYEAAAGIKKKQRYTAYQIYKELSEQGVYHGSRRRMEEVVSKLRVERNQI : -0.249
HMNQLSYTERRVLQVIEGGTTKTGEIEQALAAKMSRPTVHRALDALVGANRIHRLARGEYALGPAP : 0.321

// query soluble fraction (log2) value for entry HMSVIKERLTEFLTYKGIGQIKFAEAAGLSRGFVNVLGDGISSKSLNKISQAFPELNTLWLTTGEGEML -0.061

Reported soluble fraction (log2), sequence HMGSLVVVPNLVGQNYDEVKLSTKYSDFEIVQKNTEYSEAPAGQIIKQDPEAGTKVKKHSTINVTVSK : ____ -0.287
